tested on: kinases; assay: KINOMEscan kinase binding assay (Eurofins/DiscoveRx), % Ctrl; conditions: 1 μM; EGFR(L747-S752del, P753S)
Recorded % Ctrl, EGFR(L747-S752del, P753S) by entry
Hi! Could you send only the number? It should be in % Ctrl, unit omitted.

Some solved entries appear below for comparison.
> print(dat)
                                   molecule  result
1  Cc1cc2c([nH]1)/C=C1\C(=O)Nc3ccc(cc31)-c1cnn(C)c1COCCN(C)C2=O [Ex. 124]      37
2  Cc1cc2c([nH]1)/C=C1\C(=O)Nc3ccc(cc31)-c1c(C)n[nH]c1CNCCN(C)C2=O [Ex. 127]      40
3  Cc1cc2c([nH]1)/C=C1\C(=O)Nc3ccc(nc31)-c1ccccc1OCCCNC2=O [Ex.22]      95
4  Cc1cc2c([nH]1)/C=C1\C(=O)Nc3cnc(nc31)N(C)CCCOCCN(C)C2=O [Ex.71]     100
5  Cc1cc2c([nH]1)/C=C1\C(=O)Nc3ccc(cc31)-c1cnn(C)c1CN(C)CCN(C)C2=O [Ex. 126]      14
6  Cc1cc2c([nH]1)/C=C1\C(=O)Nc3ccc(cc31)-c1ccnn1CCNCCNC2=O [Ex. 43]      86
7  Cc1cc2c([nH]1)/C=C1\C(=O)Nc3ccc(cc31)-c1cnn(C)c1CNCCN(C)C2=O [Ex. 125]      48
8  Cc1cc2c([nH]1)/C=C1\C(=O)Nc3ccc(cc31)-c1ccnn1CCOCCN(C)C2=O [Ex. 41]      78

Field % Ctrl, EGFR(L747-S752del, P753S) (entry Cc1cc2c([nH]1)/C=C1\C(=O)Nc3ccc(cc31)OCCOCCN(C)C2=O [Ex.91] ) reads 94

The molecule listed as Cc1cc2c([nH]1)/C=C1\C(=O)Nc3cnc(cc31)-c1cnn(C)c1COCCNC2=O [Ex.123] shows % Ctrl, EGFR(L747-S752del, P753S) equal to 100

// % Ctrl, EGFR(L747-S752del, P753S) value for Cc1cc2c([nH]1)/C=C1\C(=O)Nc3cc(Cl)c(cc31)OCCO[C@@H](C(=O)NC1CCNCC1)CN(C)C2=O [Ex. 134] : 87

So for Cc1cc2c([nH]1)/C=C1\C(=O)Nc3cc(Cl)c(cc31)OCCO[C@@H](C(=O)N[C@@H]1CCNC1)CN(C)C2=O [Ex. 136] , the logged % Ctrl, EGFR(L747-S752del, P753S) turned out to be 82

Cc1cc2c([nH]1)/C=C1\C(=O)Nc3ccc(cc31)-c1c(noc1C)COCCN(C)C2=O [Ex. 128] has a reported % Ctrl, EGFR(L747-S752del, P753S) of 93

---

target: kinases (Homo sapiens, UniProt P00519, F317L); construct: purchased Eurofins/DiscoveRx; host or cells: E. coli BL21-derived host (T7 phage display) for most kinases; HEK-293 for the rest; assay: KINOMEscan kinase binding assay (Eurofins/DiscoveRx), % Ctrl; conditions: target ABL1(F317L)-nonphosphorylated; 1 μM
Sequence (P00519 whole entry F317L): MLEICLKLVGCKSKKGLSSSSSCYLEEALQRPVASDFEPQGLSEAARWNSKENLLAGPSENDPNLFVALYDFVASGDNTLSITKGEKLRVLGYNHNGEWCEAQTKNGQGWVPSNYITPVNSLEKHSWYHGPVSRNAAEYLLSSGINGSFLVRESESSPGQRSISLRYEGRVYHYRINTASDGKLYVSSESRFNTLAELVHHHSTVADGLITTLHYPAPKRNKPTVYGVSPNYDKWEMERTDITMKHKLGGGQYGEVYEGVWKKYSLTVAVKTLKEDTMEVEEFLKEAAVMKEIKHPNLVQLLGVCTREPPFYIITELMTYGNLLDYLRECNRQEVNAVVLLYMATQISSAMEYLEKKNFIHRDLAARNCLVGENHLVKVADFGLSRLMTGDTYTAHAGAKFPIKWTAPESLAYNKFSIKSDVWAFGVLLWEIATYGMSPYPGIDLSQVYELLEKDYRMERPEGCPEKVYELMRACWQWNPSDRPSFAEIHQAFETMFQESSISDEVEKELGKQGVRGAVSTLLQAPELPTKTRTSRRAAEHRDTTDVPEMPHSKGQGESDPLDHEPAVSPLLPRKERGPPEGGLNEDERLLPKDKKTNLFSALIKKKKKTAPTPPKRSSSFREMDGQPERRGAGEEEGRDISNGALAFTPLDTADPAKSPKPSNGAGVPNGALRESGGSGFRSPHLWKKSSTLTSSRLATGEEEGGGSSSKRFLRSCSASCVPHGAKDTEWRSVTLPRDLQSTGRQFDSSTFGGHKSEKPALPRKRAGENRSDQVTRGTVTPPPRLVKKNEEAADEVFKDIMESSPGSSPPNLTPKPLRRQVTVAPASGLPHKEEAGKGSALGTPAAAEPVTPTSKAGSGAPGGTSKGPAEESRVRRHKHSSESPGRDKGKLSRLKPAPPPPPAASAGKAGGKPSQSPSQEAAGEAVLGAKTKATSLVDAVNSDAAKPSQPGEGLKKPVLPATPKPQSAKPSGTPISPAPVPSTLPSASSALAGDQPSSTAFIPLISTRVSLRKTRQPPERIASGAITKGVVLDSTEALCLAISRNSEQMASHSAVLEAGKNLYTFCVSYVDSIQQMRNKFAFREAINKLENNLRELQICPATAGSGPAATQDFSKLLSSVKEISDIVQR
Quantity Kind: % Ctrl, ABL1(F317L)-nonphosphorylated (% Ctrl)
Just the number in % Ctrl, nothing appended.

Kindly note: kinases (Homo sapiens, UniProt P00519, F317L), Cc1nn(C)c2c1-c1ccc3c(c1)/C(=C/c1[nH]ccc1C(=O)N(C)CCCO2)C(=O)N3 , % Ctrl, ABL1(F317L)-nonphosphorylated value reported: 87

The compound Cc1cc2c([nH]1)/C=C1\C(=O)Nc3cnc(cc31)-c1cn[nH]c1CNCCN(C)C2=O on kinases (Homo sapiens, UniProt P00519, F317L): % Ctrl, ABL1(F317L)-nonphosphorylated was 24

CN1CCOCCOc2cc3c(cc2Cl)NC(=O)/C3=C\c2[nH]ccc2C1=O tested on kinases (Homo sapiens, UniProt P00519, F317L) gave % Ctrl, ABL1(F317L)-nonphosphorylated: 17

% Ctrl, ABL1(F317L)-nonphosphorylated on kinases (Homo sapiens, UniProt P00519, F317L) for Cc1cc2c([nH]1)/C=C1\C(=O)Nc3cc(Cl)c(cc31)OCCO[C@@H](C(=O)N1CCN(C)CC1)CN(C)C2=O is 69
